Could you please report measured CC50 for the items listed next?
method: NOVARTIS: Cytotoxicity against human hepatocellular carcinoma cell line (Huh7)
Assay type: toxicity, cell-based, Huh-7
conditions.used: Huh7 cells (hepatocellular carcinoma cell line)

| compound | CC50 |
| --- | --- |
| COc1ccc(NC(=O)Cn2c(C)c(C=O)c3ccccc32)cc1 | > 100 µM |
| c1ccc2c(c1)[nH]c1ccc3ccncc3c12 | > 10 µM |

From here, focus on the item given below.
[Q] Name the reported CC50 value associated with the compound O=C(Nc1ccc(Cl)c(C(F)(F)F)c1)NC1CC2CCC(C1)N2C1CCCC1 (stereo not drawn)
[A] > 10 µM

---

method: NOVARTIS: Cytotoxicity against human hepatocellular carcinoma cell line (Huh7)
Format: toxicity, cell-based, Huh-7
conditions.used: Huh7 cells (hepatocellular carcinoma cell line)
quantity.kind: CC50

Sample records with CC50:
| molecule | CC50 |
| --- | --- |
| CCN1C(C(=O)c2ccccc2)=C(Nc2c(C)n(C)n(-c3ccccc3)c2=O)c2ccccc2S1(=O)=O | > 100 µM |
| COC(=O)c1c(-c2c(F)cccc2Cl)noc1C=CNc1ccc(OC)cc1 | > 100 µM |
| O=C(Cc1ccsc1)NC1CCN(CC(O)CN(Cc2ccccc2)S(=O)(=O)c2ccccc2)C1 (stereo unspecified) | > 10 µM |

Hi team, please reply with CC50 for each item in this list.
1. CCOC(=O)C1=C(c2ccccc2)N=c2sc(=Cc3cccnc3)c(=O)n2C1c1c(OC)ccc2ccccc12 (stereo unspecified)
2. COc1ccc(N(CC(=O)Nc2cc(OC)ccc2OC)S(=O)(=O)c2ccc(C)cc2)cc1
3. COc1ccc(-c2cnnc(NN=Cc3ccc([N+](=O)[O-])o3)n2)cc1

[A]
1. > 100 µM
2. > 10 µM
3. > 10 µM

Entry source: ChEMBL document CHEMBL1156829
